Biological target: Acylase (Pseudomonas aeruginosa)
Sequence (A0A0G5TC92 whole entry): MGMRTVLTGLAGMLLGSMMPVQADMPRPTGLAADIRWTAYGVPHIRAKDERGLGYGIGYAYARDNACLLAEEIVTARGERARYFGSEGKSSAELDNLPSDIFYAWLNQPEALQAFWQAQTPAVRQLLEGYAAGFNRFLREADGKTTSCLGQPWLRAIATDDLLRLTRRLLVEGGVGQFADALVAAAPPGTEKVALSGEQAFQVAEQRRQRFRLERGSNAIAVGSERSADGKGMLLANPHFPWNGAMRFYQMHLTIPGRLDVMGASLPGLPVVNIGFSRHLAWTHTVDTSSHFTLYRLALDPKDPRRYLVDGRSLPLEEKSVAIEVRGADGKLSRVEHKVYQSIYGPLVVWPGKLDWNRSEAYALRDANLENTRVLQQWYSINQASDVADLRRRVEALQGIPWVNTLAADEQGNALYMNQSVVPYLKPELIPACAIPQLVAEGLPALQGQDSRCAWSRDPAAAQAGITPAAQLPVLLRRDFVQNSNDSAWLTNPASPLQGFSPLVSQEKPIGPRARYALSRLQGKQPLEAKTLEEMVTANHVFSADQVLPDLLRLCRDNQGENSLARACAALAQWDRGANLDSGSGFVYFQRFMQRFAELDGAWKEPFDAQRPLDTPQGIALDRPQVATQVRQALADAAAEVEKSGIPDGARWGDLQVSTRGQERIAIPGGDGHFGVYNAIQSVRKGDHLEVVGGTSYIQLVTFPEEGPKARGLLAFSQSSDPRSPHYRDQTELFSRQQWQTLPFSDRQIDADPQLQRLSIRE
Assay: PVdQ Inhibition Assay
Settings: pH 8
// Ki lookup, one value per entry
Give the number; mM is assumed, so skip it.

Example results:
[
  {
    "smiles-str": "CCCCB(O)O",
    "quantity-kind": "Ki",
    "reported-result": 0.55
  },
  {
    "smiles-str": "CCB(O)O",
    "quantity-kind": "Ki",
    "reported-result": 2
  },
  {
    "smiles-str": "CCCCCCB(O)O",
    "quantity-kind": "Ki",
    "reported-result": 0.0021
  }
]

Then there is this compound:
Prompt: Endpoint output: Ki of "CCCB(O)O" . Value?
Completion: 4.7
